System: ileum preparations, histamine spasm
Test: Spasmolytic activity on isolated ileum (Magnus), histamine spasm
Parameters: species or system Guinea pigs
Conditions: Cavia porcellus; guinea pig ileum, 37° C, histamine 8×10^-6 g/ml; read-out: ED50 Histamine (spasmolytic)
Assign labels as follows, please: TRUE for IC50 below 10 µg/mL; FALSE for IC50 equal to or exceeding 10 µg/mL.

Worked examples follow.
| MOLECULE | CATEGORY LABEL |
| --- | --- |
| CCN(CC)CCN=S(=O)(c1ccccc1)c1ccccc1 [Sulfoxifen-Phosphate, reference compound] | TRUE |
| CCN(CC)CCN=S(=O)(c1ccsc1)c1cccs1 (stereo not shown) | TRUE |
| O=S(=NCCN1CCCC1)(c1ccccc1)c1cccs1 (stereo not shown) | TRUE |
| O=S(=NCCN1CCOCC1)(c1cccs1)c1cccs1 | FALSE |
| CCN(CC)CCN=S(=O)(c1ccccc1)c1cccs1 (stereo not shown) | TRUE |

Kindly consider the entry below.
## Task Threshold test, IC50 < 10 µg/mL: CN(C)CCCN=S(=O)(c1ccccc1)c1cccs1 (stereo not shown)
## Result FALSE

* * *

Here the recorded LD50 at 24 h is given for each entry.
Experiment: Acute toxicity in mice (LD50, Litchfield and Wilcoxon)
Details: mouse, in vivo, po, male NRMI mice, w.i.g. (gastric tube), read-out: Acute Toxicity LD50, w.i.g.

The examples below pair each entry with its known result.
| COMPOUND | LD50 at 24 h |
| --- | --- |
| CCN(CC)CCN=S(=O)(c1ccccc1)c1ccsc1 (stereo not drawn) [Example 4] | 200 mg/kg |
| CN(C)CCCN=S(=O)(c1ccccc1)c1cccs1 (stereo not drawn) [Example 2] | < 800 mg/kg |

Lab note: next compound to report on.
## Task # input compound: CCN(CC)CCN=S(=O)(c1ccsc1)c1ccsc1 [Example 9] ; wanted: its LD50 at 24 h
## Result > 30 mg/kg
